Cited source: the supplement of paper PMC12669032

tested on: Odoribacter splanchnicus; test: growth AUC relative to DMSO control (median of replicates) (fraction); higher = more growth (less inhibition), active = hit call of the paper; conditions: 20 µM; 24 h
Kindly state growth AUC for each of the entries shown.
Give bare numbers.

> print(dat)
                                   molecule         system.under.test  recorded.result
1                      Clc1ccc(Cl)c(Cl)c1Cl  Odoribacter splanchnicus            0.973
2      COP(=S)(OC)Oc1ccc(S(=O)(=O)N(C)C)cc1  Odoribacter splanchnicus            0.977
3  COC(=O)c1sccc1S(=O)(=O)NC(=O)Nc1nc(C)nc(OC)n1  Odoribacter splanchnicus             1.01

Could you tell me growth AUC for each of these molecules? They are listed below.
1. CC(C)(C)C(O)(CCc1ccc(Cl)cc1)Cn1cncn1 (stereo not given)
2. CC(C)N(C)S(=O)(=O)NC(=O)c1cc(-n2c(=O)cc(C(F)(F)F)n(C)c2=O)c(F)cc1Cl

1. 0.973
2. 0.99
